Consider the following compounds; for each one, report its melting point.

// solved cases for melting point follow
compound	test value
COc1ccc(-c2sc3cc(OC)ccc3c2C(=O)c2ccccc2)cc1	100 to 102 °C
NC(=O)C(c1ccccc1)(c1ccccc1)c1ccc(N)cn1	215 to 220 °C
CCOC(=O)NC(=O)c1nn(-c2cc(Cl)c(C(C)(C)C#N)c(Cl)c2)c(=O)[nH]c1=O	110 °C

Next compound, melting point to be filled in.
q: Report melting point, nothing else, for this compound: COc1cc(OC)cc(C(NCC(=O)Nc2c(C(C)C)cccc2C(C)C)c2ccccc2)c1 (centres undefined)
a: 111 to 112 °C

Provenance of the data: a melting point compilation (Tetko et al.; mined from patent text by program, amines drawn as free bases though some values may be those of a salt)
